Molecular target: Cytochrome P450 3A4 (Homo sapiens)
Sequence (P08684 whole entry): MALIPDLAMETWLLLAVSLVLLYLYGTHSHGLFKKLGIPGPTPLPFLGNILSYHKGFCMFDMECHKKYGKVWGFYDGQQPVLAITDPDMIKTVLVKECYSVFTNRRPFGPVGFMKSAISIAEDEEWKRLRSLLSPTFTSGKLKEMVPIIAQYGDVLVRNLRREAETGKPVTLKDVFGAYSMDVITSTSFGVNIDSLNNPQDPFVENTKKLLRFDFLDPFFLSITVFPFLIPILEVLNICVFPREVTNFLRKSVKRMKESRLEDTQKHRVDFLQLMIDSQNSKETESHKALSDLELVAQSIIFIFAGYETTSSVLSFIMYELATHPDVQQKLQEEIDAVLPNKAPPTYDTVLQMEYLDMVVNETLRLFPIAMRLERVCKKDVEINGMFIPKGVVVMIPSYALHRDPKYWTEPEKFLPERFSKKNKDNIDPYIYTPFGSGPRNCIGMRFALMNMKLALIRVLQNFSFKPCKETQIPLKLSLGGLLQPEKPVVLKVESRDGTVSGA
Test: Inhibition of CYP3A4 in human liver microsomes using nifedipine as substrate after 5 to 60 mins by LC-MS/MS analysis
Type: ADME, Microsome
pIC50: −log10 of the molar value.
REPORTED PROPERTY: pIC50

A: Cn1cc(-c2ccc3c(c2F)CCN3C(=O)Cc2cccc(C(F)(F)F)n2)c2c(N)ncnc21
B: Cc1cc(C)n(CC(=O)N2CCc3c2ccc(-c2cn(C)c4ncnc(N)c24)c3F)n1
IN: Given the listed records, identify the one among A and B with higher pIC50. Answer by stating the label of the chosen item.
OUT: A
(A: 5.13, B: 4.69)
